This listing pairs compounds with measured CC50.
- protocol summary: Cytotoxicity with the XTT assay (Table 1)
- measurement conditions: human, HepAD38 cells

# compound, CC50
data = [
    ("Nc1ccn([C@@H]2CS[C@H](CO)O2)c(=O)n1 [Lamivudine (3TC), Lamivudine, reference compound]", "> 100 µM"),
    ("Cc1c(C(=O)Nc2ccccc2)sc(N)c1C(N)=O [HF9C6]", "> 300 µM"),
]

Where these numbers come from: patent US10759774B2
